test system: SK-OV-3 ovarian; assay: NCI-60 one-dose screen, 48 h (100 = growth as untreated, 0 = no growth, -100 = all killed); conditions: 10 µM unless noted
Compounds without any hit were thinned out: in the full panel of roughly 83,000, 20% have a hit.
I'd be grateful if you could share measured growth for these entries.
Note: unit % is implicit; provide only the numeric part.

Entry O=C(NC(Cc1nnc2n(Cc3ccccc3)c(=O)c3c4c(sc3n12)CCCC4)c1ccc(Cl)cc1)c1ccccc1 (stereo not drawn) , tested on SK-OV-3 ovarian, has a reported growth of 109

Entry `O=C(NCCCNc1cc(-c2cn(-c3ccccc3)nc2-c2cccc(O)c2)ccn1)c1cccc(O)c1` , tested on SK-OV-3 ovarian, has a reported growth of 69.3

Entry `COC(=O)[C@]12CC[C@@H](C)[C@H](C)[C@@H]1C1=CC[C@@H]3[C@@]4(C)C(C=O)=C[C@@](C)(COS(C)(=O)=O)[C@@H]4C(=O)C[C@@]3(C)[C@]1(C)CC2` , tested on SK-OV-3 ovarian, has a reported growth of 66.4

Entry `Cn1c(-c2c(N)n(Cc3cccnc3)c3nc(C#N)c(C#N)nc23)nc2ccccc21` , tested on SK-OV-3 ovarian, has a reported growth of 116

Entry COc1ccc(C2=NN(C(=O)c3cc(OC)c(OC)c(OC)c3)C(c3ccc(Cl)cc3)C2)cc1OC (stereo not drawn) , tested on SK-OV-3 ovarian, has a reported growth of 25.8

Entry `COc1ccc(-c2nc3c(N)c(CO)c(C)nc3o2)cc1` , tested on SK-OV-3 ovarian, has a reported growth of 106

Entry `COc1ccc2oc3c(C)c4c(c(C)c3c2c1)C(=O)N(Cc1ccccc1)C4=O` , tested on SK-OV-3 ovarian, has a reported growth of 103

Entry `CC(C)(C)CC(C)(C)Nc1c(-c2ccncc2)nc2cnccn12` , tested on SK-OV-3 ovarian, has a reported growth of 92.8

----------
Tested on: OVCAR-3 ovarian
Assay: NCI-60 one-dose screen, 48 h
Conditions: 10 µM unless noted
Experimental: Growth inhibition of the OVCAR-3 human tumor cell line is measured as a screen for anti-cancer activity. Cells are grown in 96 well plates and exposed to the test compound for 48 hours. Compounds are tested at a single concentration, which is 10^-5 M for most compounds. The reported endpoint is percent growth (GI% or GIPRCNT), where numbers from 0 - 100% represent growth inhibition, and numbers from -100% - 0 represent cell death. For example, a value of 40 represents 60% growth inhibition. […]
About 83,000 compounds went through this panel and 20% of them were active in at least one assay; those are over-represented in the sample as a whole. Calls of active or inactive are those of the source. Rule for the calls: active = growth percent below 10; inactive = the rest.
A correct response names exactly one class from 1 (active), -1 (inactive)

Query: recorded result category for `COc1ccc(-c2nc(SC(C)C)nc(NNC(N)=S)c2C#N)cc1` in this test
-1

Query: recorded result category for `CCCCc1ccc(Nc2ccc(Nc3ccc(CCCC)cc3S(=O)(=O)O)c3c2C(=O)c2ccccc2C3=O)c(S(=O)(=O)O)c1` in this test
-1

Query: recorded result category for N#CC1=C(c2ccc(Br)cc2)NC(SCC(=O)c2ccc(Br)cc2)NC1=O (centres undefined) in this test
-1

Query: recorded result category for `Cc1ccc(-c2c(-c3ccccc3)c(=O)oc3ccc(C)cc23)cc1` in this test
-1

Query: recorded result category for `CCN(CC)CCN1CC(O)=C(c2nc(-c3ccc(Cl)cc3)cs2)C1=N` in this test
-1

Query: recorded result category for `O=c1c2c3c(sc2n2c(-c4cc(-c5ccccc5)nn4-c4ccccc4)nnc2n1Cc1ccccc1)CCCC3` in this test
-1

Query: recorded result category for `COc1cccc(C(=O)NCCNc2cc(-c3cn(-c4ccccc4)nc3-c3cccc(OC)c3)ccn2)c1` in this test
-1

Query: recorded result category for `COc1ccc2c(c1)C(=O)/C(=C/c1ccc(OCC(=O)Nc3nccs3)cc1)O2` in this test
1

Query: recorded result category for `O=C(Nc1cccc(Cl)c1)c1cc(N=Nc2ccc([N+](=O)[O-])cc2Cl)ccc1O` in this test
-1
